// provenance: patent US20250011363A1

Recorded Binding affinity (RU) by entry
- Measured target: acetylcholine receptor
- Experiment: SPR, acetylcholine receptor on CM5 chip, peptide 10 µM
Your answer should be a plain number; it is taken to be in RU.

// known answers, use as guide
>  <Binder>
KLYLRR [6mer-2-573]

>  <Binding affinity (RU)>
121

$$$$
>  <Binder>
RGYSRK [6mer-2-575]

>  <Binding affinity (RU)>
139

$$$$

So what's the measured Binding affinity (RU) for this one? KSRRRR [6mer-2-565] 147

Continue with RRRYRK [6mer-2-599] 121

Continue with RWQLRK [6mer-2-569] 135
